Test system: Burkholderia pseudomallei
Assay: Antimicrobial activity against Burkholderia pseudomallei KHW in presence of 1000 uM promazine
Format: functional
Measured MIC, listed per entry for reference.

Examples with answers:
{"columns": ["smiles-string", "experimental-result"],
 "data": [
  ["C[C@H]1COc2c(N3CCN(C)CC3)c(F)cc3c(=O)c(C(=O)O)cn1c23.C[C@H]1COc2c(N3CCN(C)CC3)c(F)cc3c(=O)c(C(=O)O)cn1c23.O", "< 0.25 µg/mL"],
  ["CN[C@@H]1[C@H](O[C@H]2[C@H](O[C@H]3[C@H](O)[C@@H](O)[C@H](N=C(N)N)[C@@H](O)[C@@H]3N=C(N)N)O[C@@H](C)[C@]2(O)C=O)O[C@@H](CO)[C@H](O)[C@H]1O", "0.5 µg/mL"],
  ["CC[C@H]1OC(=O)[C@H](C)[C@@H](O[C@H]2C[C@@](C)(OC)[C@@H](O)[C@H](C)O2)[C@H](C)[C@@H](O[C@@H]2O[C@H](C)C[C@H](N(C)C)[C@H]2O)[C@](C)(O)C[C@@H](C)CN(C)[C@H](C)[C@@H](O)[C@]1(C)O", "< 0.25 µg/mL"],
  ["CN[C@@H]1[C@H](O)[C@H](NC)[C@H]2O[C@@]3(O)C(=O)C[C@@H](C)O[C@H]3O[C@@H]2[C@H]1O", "< 0.25 µg/mL"]
]}

Find the recorded MIC belonging to CO[C@H]1C[C@H](O[C@H]2[C@H](C)[C@@H](O[C@@H]3O[C@H](C)C[C@H](N(C)C)[C@H]3O)[C@@H](C)C[C@@]3(CO3)C(=O)[C@H](C)[C@@H](O)[C@@H](C)[C@@H](C)OC(=O)[C@@H]2C)O[C@@H](C)[C@@H]1O and report it. 0.5 µg/mL

# repeat for CC[C@H]1OC(=O)[C@H](C)[C@@H](O[C@H]2C[C@@](C)(OC)[C@@H](O)[C@H](C)O2)[C@H](C)[C@@H](O[C@@H]2O[C@H](C)C[C@H](N(C)C)[C@H]2O)[C@](C)(O)C[C@@H](C)C(=O)[C@H](C)[C@@H](O)[C@]1(C)O < 0.25 µg/mL

---

Measured MIC, listed per entry for reference.
Tested on: Burkholderia pseudomallei
Experiment: Antimicrobial activity against Burkholderia pseudomallei KHW in presence of 500 uM chlorpromazine
Assay type: functional
The reply should contain only the number, in µg/mL.

Find the recorded MIC belonging to CC[C@H]1OC(=O)[C@H](C)[C@@H](O[C@H]2C[C@@](C)(OC)[C@@H](O)[C@H](C)O2)[C@H](C)[C@@H](O[C@@H]2O[C@H](C)C[C@H](N(C)C)[C@H]2O)[C@](C)(O)C[C@@H](C)CN(C)[C@H](C)[C@@H](O)[C@]1(C)O and report it. 8

# repeat for CN[C@@H]1[C@H](O)[C@H](NC)[C@H]2O[C@@]3(O)C(=O)C[C@@H](C)O[C@H]3O[C@@H]2[C@H]1O 32

# repeat for CC[C@H]1OC(=O)[C@H](C)[C@@H](O[C@H]2C[C@@](C)(OC)[C@@H](O)[C@H](C)O2)[C@H](C)[C@@H](O[C@@H]2O[C@H](C)C[C@H](N(C)C)[C@H]2O)[C@](C)(O)C[C@@H](C)C(=O)[C@H](C)[C@@H](O)[C@]1(C)O 8

# repeat for CO[C@H]1C[C@H](O[C@H]2[C@H](C)[C@@H](O[C@@H]3O[C@H](C)C[C@H](N(C)C)[C@H]3O)[C@@H](C)C[C@@]3(CO3)C(=O)[C@H](C)[C@@H](O)[C@@H](C)[C@@H](C)OC(=O)[C@@H]2C)O[C@@H](C)[C@@H]1O 128

---

Test system: Burkholderia pseudomallei
Assay: Antimicrobial activity against Burkholderia pseudomallei KHW in presence of 3.9 uM omeprazole
Assay type: functional
quantity-name: MIC (µg/mL)
The reply should contain only the number, in µg/mL.

Examples with answers:
{"columns": ["smiles-string", "quantity-name", "experimental-result"],
 "data": [
  ["CC[C@H]1OC(=O)[C@H](C)[C@@H](O[C@H]2C[C@@](C)(OC)[C@@H](O)[C@H](C)O2)[C@H](C)[C@@H](O[C@@H]2O[C@H](C)C[C@H](N(C)C)[C@H]2O)[C@](C)(O)C[C@@H](C)C(=O)[C@H](C)[C@@H](O)[C@]1(C)O", "MIC", 128],
  ["C[C@H]1COc2c(N3CCN(C)CC3)c(F)cc3c(=O)c(C(=O)O)cn1c23.C[C@H]1COc2c(N3CCN(C)CC3)c(F)cc3c(=O)c(C(=O)O)cn1c23.O", "MIC", 2],
  ["CN[C@@H]1[C@H](O)[C@H](NC)[C@H]2O[C@@]3(O)C(=O)C[C@@H](C)O[C@H]3O[C@@H]2[C@H]1O", "MIC", 256],
  ["CC[C@H]1OC(=O)[C@H](C)[C@@H](O[C@H]2C[C@@](C)(OC)[C@@H](O)[C@H](C)O2)[C@H](C)[C@@H](O[C@@H]2O[C@H](C)C[C@H](N(C)C)[C@H]2O)[C@](C)(O)C[C@@H](C)CN(C)[C@H](C)[C@@H](O)[C@]1(C)O", "MIC", 32]
]}

Moving on to another compound below.
Find the recorded MIC belonging to CN[C@@H]1[C@H](O[C@H]2[C@H](O[C@H]3[C@H](O)[C@@H](O)[C@H](N=C(N)N)[C@@H](O)[C@@H]3N=C(N)N)O[C@@H](C)[C@]2(O)C=O)O[C@@H](CO)[C@H](O)[C@H]1O and report it. 1020

---

Test system: Burkholderia pseudomallei
Experiment: Antimicrobial activity against Burkholderia pseudomallei KHW in presence of 1000 uM prochlorperazine
Type: functional
Measured MIC, listed per entry for reference.

Examples with answers:
{"columns": ["smiles-string", "test-system", "experimental-result"],
 "data": [
  ["C[C@H]1COc2c(N3CCN(C)CC3)c(F)cc3c(=O)c(C(=O)O)cn1c23.C[C@H]1COc2c(N3CCN(C)CC3)c(F)cc3c(=O)c(C(=O)O)cn1c23.O", "Burkholderia pseudomallei", "< 0.25 µg/mL"],
  ["CN[C@@H]1[C@H](O[C@H]2[C@H](O[C@H]3[C@H](O)[C@@H](O)[C@H](N=C(N)N)[C@@H](O)[C@@H]3N=C(N)N)O[C@@H](C)[C@]2(O)C=O)O[C@@H](CO)[C@H](O)[C@H]1O", "Burkholderia pseudomallei", "256 µg/mL"],
  ["CO[C@H]1C[C@H](O[C@H]2[C@H](C)[C@@H](O[C@@H]3O[C@H](C)C[C@H](N(C)C)[C@H]3O)[C@@H](C)C[C@@]3(CO3)C(=O)[C@H](C)[C@@H](O)[C@@H](C)[C@@H](C)OC(=O)[C@@H]2C)O[C@@H](C)[C@@H]1O", "Burkholderia pseudomallei", "64 µg/mL"],
  ["CC[C@H]1OC(=O)[C@H](C)[C@@H](O[C@H]2C[C@@](C)(OC)[C@@H](O)[C@H](C)O2)[C@H](C)[C@@H](O[C@@H]2O[C@H](C)C[C@H](N(C)C)[C@H]2O)[C@](C)(O)C[C@@H](C)CN(C)[C@H](C)[C@@H](O)[C@]1(C)O", "Burkholderia pseudomallei", "< 0.25 µg/mL"],
  ["CN[C@@H]1[C@H](O)[C@H](NC)[C@H]2O[C@@]3(O)C(=O)C[C@@H](C)O[C@H]3O[C@@H]2[C@H]1O", "Burkholderia pseudomallei", "< 0.25 µg/mL"]
]}

Moving on to another compound below.
Find the recorded MIC belonging to CC[C@H]1OC(=O)[C@H](C)[C@@H](O[C@H]2C[C@@](C)(OC)[C@@H](O)[C@H](C)O2)[C@H](C)[C@@H](O[C@@H]2O[C@H](C)C[C@H](N(C)C)[C@H]2O)[C@](C)(O)C[C@@H](C)C(=O)[C@H](C)[C@@H](O)[C@]1(C)O and report it. 8 µg/mL

---

System: Burkholderia pseudomallei
Assay: Antimicrobial activity against Burkholderia pseudomallei KHW in presence of 3.9 uM promazine
Type: functional
quantity-name: MIC (µg/mL)
The reply should contain only the number, in µg/mL.

{"columns": ["molecule", "MIC, µg/mL"],
 "data": [
  ["CC[C@H]1OC(=O)[C@H](C)[C@@H](O[C@H]2C[C@@](C)(OC)[C@@H](O)[C@H](C)O2)[C@H](C)[C@@H](O[C@@H]2O[C@H](C)C[C@H](N(C)C)[C@H]2O)[C@](C)(O)C[C@@H](C)C(=O)[C@H](C)[C@@H](O)[C@]1(C)O [ERYTHROMYCIN]", 128]
]}

Find the recorded MIC belonging to CN[C@@H]1[C@H](O[C@H]2[C@H](O[C@H]3[C@H](O)[C@@H](O)[C@H](N=C(N)N)[C@@H](O)[C@@H]3N=C(N)N)O[C@@H](C)[C@]2(O)C=O)O[C@@H](CO)[C@H](O)[C@H]1O [STREPTOMYCIN] and report it. 1020

# repeat for CC[C@H]1OC(=O)[C@H](C)[C@@H](O[C@H]2C[C@@](C)(OC)[C@@H](O)[C@H](C)O2)[C@H](C)[C@@H](O[C@@H]2O[C@H](C)C[C@H](N(C)C)[C@H]2O)[C@](C)(O)C[C@@H](C)CN(C)[C@H](C)[C@@H](O)[C@]1(C)O [AZITHROMYCIN] 32

# repeat for C[C@H]1COc2c(N3CCN(C)CC3)c(F)cc3c(=O)c(C(=O)O)cn1c23.C[C@H]1COc2c(N3CCN(C)CC3)c(F)cc3c(=O)c(C(=O)O)cn1c23.O [LEVOFLOXACIN] 2

# repeat for CN[C@@H]1[C@H](O)[C@H](NC)[C@H]2O[C@@]3(O)C(=O)C[C@@H](C)O[C@H]3O[C@@H]2[C@H]1O [SPECTINOMYCIN] 256
